Calls of active or inactive are those of the source.
Entries with reported Kd on ADP/ATP translocase 2 (Homo sapiens, UniProt P05141)
Sequence (P05141 whole entry): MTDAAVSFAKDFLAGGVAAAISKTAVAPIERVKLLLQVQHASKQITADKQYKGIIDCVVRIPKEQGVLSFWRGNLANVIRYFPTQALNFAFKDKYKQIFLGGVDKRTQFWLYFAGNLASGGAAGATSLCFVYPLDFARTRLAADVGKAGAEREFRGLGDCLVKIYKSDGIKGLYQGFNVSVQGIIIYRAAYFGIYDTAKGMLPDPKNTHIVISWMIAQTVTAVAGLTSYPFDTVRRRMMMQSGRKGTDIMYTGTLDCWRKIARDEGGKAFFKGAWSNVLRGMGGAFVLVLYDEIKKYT

# COMPOUND, Kd
data = [
    ("COc1cc(CCc2cc(NC(=O)c3ccc(N4C[C@@H](C)N[C@@H](C)C4)cc3)n[nH]2)cc(OC)c1", "> 30 µM (inactive)"),
    ("Cc1cc2c(F)c(Oc3ncnn4cc(OC[C@@H](C)OC(=O)[C@H](C)N)c(C)c34)ccc2[nH]1 [BRIVANIB ALANINATE]", "> 30 µM (inactive)"),
    ("CN1CC[C@@H](c2c(O)cc(O)c3c(=O)cc(-c4ccccc4Cl)oc23)[C@@H]1CO", "> 30 µM (inactive)"),
    ("CCn1c(=O)c(-c2cc[nH]n2)cc2c(C)nc(N)nc21", "> 30 µM (inactive)"),
    ("Cc1c(F)cc(C(=O)NC2CC2)cc1-c1ccc(C(=O)NCC(C)(C)C)cn1", "> 30 µM (inactive)"),
    ("C[C@@H]1CN(Cc2ccc(F)cc2)[C@@H](C)CN1C(=O)c1cc2c(C(=O)C(=O)N(C)C)cn(C)c2cc1Cl", "> 30 µM (inactive)"),
    ("Nc1nc(N)c2nc(-c3cccc(O)c3)c(-c3cccc(O)c3)nc2n1", "> 30 µM (inactive)"),
    ("CN1CCC(COc2cnc(-c3cccc(Cn4nc(-c5cccc(C#N)c5)ccc4=O)c3)nc2)CC1", "> 30 µM (inactive)"),
]

###

# TARGET DESC: Serine/threonine-protein kinase/endoribonuclease IRE2 (Homo sapiens); also: in the data inactive means no Kd found up to 30 µM
# Sequence (Q76MJ5 whole entry): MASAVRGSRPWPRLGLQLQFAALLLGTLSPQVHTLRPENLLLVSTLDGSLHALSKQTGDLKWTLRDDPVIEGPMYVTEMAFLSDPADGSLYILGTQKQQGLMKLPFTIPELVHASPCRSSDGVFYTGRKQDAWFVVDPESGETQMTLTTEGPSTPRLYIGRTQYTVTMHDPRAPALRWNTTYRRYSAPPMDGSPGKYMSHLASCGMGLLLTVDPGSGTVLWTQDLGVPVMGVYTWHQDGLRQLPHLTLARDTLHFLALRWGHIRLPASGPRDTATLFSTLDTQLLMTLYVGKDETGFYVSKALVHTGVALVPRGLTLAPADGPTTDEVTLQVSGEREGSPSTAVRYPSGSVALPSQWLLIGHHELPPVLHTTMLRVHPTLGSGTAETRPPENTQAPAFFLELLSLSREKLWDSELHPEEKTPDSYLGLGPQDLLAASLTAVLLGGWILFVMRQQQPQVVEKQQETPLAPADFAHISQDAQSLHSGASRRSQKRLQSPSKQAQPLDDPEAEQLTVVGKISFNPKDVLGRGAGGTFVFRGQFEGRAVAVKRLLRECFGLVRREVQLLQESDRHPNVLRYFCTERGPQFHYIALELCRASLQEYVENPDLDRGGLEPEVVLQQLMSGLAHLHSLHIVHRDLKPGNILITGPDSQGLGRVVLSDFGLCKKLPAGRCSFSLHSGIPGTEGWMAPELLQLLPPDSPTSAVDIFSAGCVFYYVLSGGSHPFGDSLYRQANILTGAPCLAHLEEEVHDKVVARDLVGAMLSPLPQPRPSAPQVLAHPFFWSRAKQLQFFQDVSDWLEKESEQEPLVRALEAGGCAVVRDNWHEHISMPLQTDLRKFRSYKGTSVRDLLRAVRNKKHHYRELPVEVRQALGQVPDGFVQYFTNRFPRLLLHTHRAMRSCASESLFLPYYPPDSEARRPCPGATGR
Active and inactive are the calls of the source.
Possible outcomes: y = active, n = inactive

# COMPOUND, CATEGORY
rows = [
    ("COc1cc(N2CCC(N3CCN(C)CC3)CC2)ccc1Nc1ncnc(Nc2ccccc2S(=O)(=O)C(C)C)n1", "n"),
    ("CNC(=O)c1ccc(-c2cnc3ncc(Cc4ccc5ncccc5c4)n3n2)cc1F", "n"),
    ("CCS(=O)(=O)N1CC(CC#N)(n2cc(-c3ncnc4[nH]ccc34)cn2)C1", "n"),
    ("CNC(=O)c1cc(Oc2ccc(NC(=O)Nc3ccc(Cl)c(C(F)(F)F)c3)c(F)c2)ccn1", "n"),
    ("Nc1nc(N)c2nc(-c3cccc(O)c3)c(-c3cccc(O)c3)nc2n1", "n"),
    ("O=C(O)[C@]1(Cc2cccc(Nc3nccs3)n2)CC[C@@H](Oc2cccc(Cl)c2F)CC1", "n"),
    ("C1=C/COCc2cc(ccc2OCCN2CCCC2)Nc2nccc(n2)-c2cccc(c2)COC/1", "n"),
    ("Cc1c(F)cc(C(=O)NC2CC2)cc1-c1ccc(C(=O)NCC(C)(C)C)cn1", "n"),
    ("O=C(Nc1cccc(Cl)c1)Nc1ncc(CCNc2ncnc3ccsc23)s1", "n"),
    ("CCn1c(-c2nonc2N)nc2c(C#CC(C)(C)O)ncc(OC[C@H]3CCCNC3)c21", "n"),
    ("COC(=O)[C@@]1(O)C[C@H]2O[C@]1(C)n1c3ccccc3c3c4c(c5c6ccccc6n2c5c31)C(=O)NC4 [K-252A]", "y"),
    ("COc1cc(CCc2cc(NC(=O)c3ccc(N4C[C@@H](C)N[C@@H](C)C4)cc3)n[nH]2)cc(OC)c1", "n"),
    ("Cc1nc(N)sc1-c1ccnc(Nc2ccc(N3CCOCC3)cc2)n1", "n"),
    ("CC(C)Nc1cc(-c2c[nH]c(C(=O)N[C@H](CO)c3cccc(Cl)c3)c2)c(Cl)cn1", "n"),
    ("CN1CCC(COc2cnc(-c3cccc(Cn4nc(-c5cccc(C#N)c5)ccc4=O)c3)nc2)CC1", "n"),
    ("CC[C@@H]1C(=O)N(C)c2cnc(Nc3ccc(C(=O)N[C@H]4CC[C@H](N5CCN(CC6CC6)CC5)CC4)cc3OC)nc2N1C(C)C", "n"),
    ("CN1CC[C@@H](c2c(O)cc(O)c3c(=O)cc(-c4ccccc4Cl)oc23)[C@@H]1CO", "n"),
]
